Test system: T1, RBM39 RRM2 F259A (UniProt Q14498 250-328, F259A)
T1 sequence: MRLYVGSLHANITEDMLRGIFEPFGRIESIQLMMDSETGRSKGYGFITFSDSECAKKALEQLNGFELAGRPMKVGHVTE
Assay info: ITC; n=1.27; ITC: RRM2/RRM12 in 10 mM Na phosphate pH 6.8, 50 mM NaCl, 2 mM DTT; RRM1 in the same at pH 5.5; 40 C (RRM12 with ssSL3 at 35 C); NMR 200 uM protein in the same
Conditions used: protein: recombinant
Reported endpoint: Kd (µM)
Write the number in µM without appending the unit.

Exercise: If you can, please state the reported Kd value of AGCUUUG (ssRNA) .
Solution: 41
